test: elution rate: rifampicin/tobramycin content remaining on the graft; format: in vivo; conditions: dog, explanted graft, other: graft implanted end to end in the infrarenal aorta, graft harvested from dog, Implant Duration 7 Days; one line per dog; read-out: Tobramycin Content, 1st Extraction
value-kind: concentration at 7 days (ng/g)
Give bare numbers, in ng/g.

[Q] Output concentration at 7 days of `NC[C@H]1O[C@H](O[C@H]2[C@H](O)[C@@H](O[C@H]3O[C@H](CO)[C@@H](O)[C@H](N)[C@H]3O)[C@H](N)C[C@@H]2N)[C@H](N)C[C@@H]1O`
[A] 4800

* * *

assay: elution rate: rifampicin/tobramycin content remaining on the graft; type: in vivo; settings: dog, explanted graft, other: graft implanted end to end in the infrarenal aorta, graft harvested from dog, Implant Duration 14 Days; one line per dog; read-out: Rifampicin Content, 1st Extraction
value-kind: concentration at 14 days
Please report the result as a number followed by the unit.

[Q] Output concentration at 14 days of CO[C@H]1/C=C/O[C@@]2(C)Oc3c(C)c(O)c4c(O)c(c(/C=N/N5CCN(C)CC5)c(O)c4c3C2=O)NC(=O)/C(C)=C\C=C\[C@H](C)[C@H](O)[C@@H](C)[C@@H](O)[C@@H](C)[C@H](OC(C)=O)[C@@H]1C [Rifampicin, rifampicin]
[A] 730 ng/g
